Test: blockers of JRFL envelope-mediated fusion – HeLa-JRFL effector, CEM21 target cells, luciferase, primary screen (AID 651610)
Conditions: HeLa-JRFL Env/CEM21 cell fusion; at 12.3 µM unless noted
In all, about 360,000 compounds went through this assay and about 3,900 (1.1%) were called active.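 How the source made its calls: active means mean replicate inhibition score of at least 50 and every replicate individually at or above 50; inconclusive means only one of the two criteria met; inactive means mean below 50 and not all replicates reaching 50.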 Shown is part of a subset that was picked to be rich in actives.
Possible outcomes: active, inactive

| compound | label class |
| --- | --- |
| CCC(C)(O)C(=O)OC1C(=O)OC2CC3C(C)=CC(=O)C(O)C3(C)C3C4(O)OCC23C1C(C)C4O (stereo not drawn) | active |
| CS(=O)(=O)N1CCC2CCNC2C1 (stereo not drawn) | inactive |
| CC(C)(C)c1ccc(CN2C(=O)CN=C(c3ccccc3)c3ccccc32)cc1 | active |
| O=C(O)[C@H]1[C@H](CO)[C@H]2Cn3c(ccc(-c4ccccc4F)c3=O)[C@@H]1N2C(=O)c1cccnc1 | inactive |
| COC(=O)C[C@@H]1CC[C@@H]2NC[C@@H](O)COC[C@H]2O1 | inactive |
| Cc1cc(N2CCNC[C@@H]2C)ccc1N1CC[C@H](O)C1 | inactive |
| O=S(=O)(c1ccccc1)N1CCC2CCNC2C1 (stereo not drawn) | inactive |
| O=C(O)[C@@H]1[C@@H](CO)[C@@H]2Cn3c(ccc(-c4ccccc4F)c3=O)[C@H]1N2C(=O)c1cccnc1 | inactive |
